System: SF-268 CNS
assay details: NCI-60 one-dose screen, 48 h (100 = growth as untreated, 0 = no growth, -100 = all killed)
condition: 10 µM unless noted
About 83,000 compounds went through this panel and 20% of them were active in at least one assay; those are over-represented in the sample as a whole.
Mark class 1 for reported growth of 50% or greater; mark class 0 for anything smaller.

Look over these answered cases.
* CC[C@H](C)[C@@H](C(=O)OC)n1cc(CNC(=O)[C@@H](Cc2ccccc2)NC(=O)OCc2ccccc2)nn1 | class 1
* O=Cc1cc2ccccc2nc1Nc1nccs1 | class 1
* CNCCNc1nc2ccccc2c2c(=O)c3cc(F)ccc3sc12 | class 0

Query: Exam item: decide whether the reported growth for Cc1cccc2c(=O)c3c(sc12)c(NCCN)nc1ccccc13 is at least 50%.
Response: class 0

Query: Now give it for Cc1nn(-c2nc3ccccc3[nH]2)c2c1C(c1ccc(OCC(N)=O)cc1)CC(=O)N2 (stereo not given) too.
Response: class 1

* * *

Tested on: M14 melanoma
assay details: NCI-60 one-dose screen, 48 h (100 = growth as untreated, 0 = no growth, -100 = all killed)
condition: 10 µM unless noted
Compounds without any hit were thinned out: in the full panel of roughly 83,000, 20% have a hit.
Exercise: for every item that follows, state its recorded growth.
Numbers only, in %.

• NNC(=O)CNC(=O)Nc1n[nH]c(=S)s1 = 93.5
• COc1ccc(Br)c(/C=C2\SC(=Nc3ccc(O)cc3)NC2=O)c1 = 97.8
• Cn1nc(C(C)(C)C)cc1NC(=O)Cc1ccc(/C=C2\C(=O)Nc3ccccc32)cc1 = 56.5
• O=C(Nc1ccc(F)c(Cl)c1)Nc1ccc(Cl)c(Cl)c1 = 53.6
• Nc1ncnc(N)c1NC(=O)c1ccc(OCc2ccccc2)cc1 = 108

Below are 5 molecules. Give each one its growth.
1. O=C1NC(=S)NC(=O)C1=Cc1cn(Cc2cn(Cc3cccc4ccccc34)nn2)c2ccccc12
2. COc1cccc(/C(C#N)=C/c2nc3c(N4CCOCC4)nc(Cl)nc3n2C)c1
3. O=C1c2cc(I)ccc2Oc2cc([N+](=O)[O-])ccc2N1c1ccc(Cl)cc1F
4. O=C(Nc1ccc(Br)cc1F)c1cc(F)ccc1O
5. O=c1c2cccc(F)c2sc2c(N3CCNCC3)nc3ccccc3c12

Response:
1: 95; 2: -54.3; 3: 97.7; 4: -11.3; 5: -27.4

Query: # growth lookup, item Oc1c(C(Nc2ccccn2)c2cccc(Oc3ccccc3)c2)ccc2cccnc12 (stereo unspecified)
Response: -68.6

* * *

System: SK-OV-3 ovarian
assay details: NCI-60 one-dose screen, 48 h
condition: 10 µM unless noted
About 83,000 compounds went through this panel and 20% of them were active in at least one assay; those are over-represented in the sample as a whole. Calls of active or inactive are those of the source. Rule for the calls: active = growth percent below 10; inactive = the rest.
Would you mind answering with one of these outcomes? 1.0 for active, 0.0 for inactive

Query: Dear colleague, could you share the recorded outcome for CCc1ccc(CNCC(O)c2ccccc2)cc1 (stereo unspecified) when you have a moment?
Response: 0.0

Query: Moving on to CC1=C(C(=O)OCC2CCN(C(=O)OC(C)(C)C)CC2)[C@@H](c2cccc(C#N)c2)C2=C(CC(C)(C)CC2=O)N1
Response: 0.0

Query: Record: CCOC(=O)c1sc(-c2ccc(OS(=O)(=O)c3cccs3)c(C=O)c2)nc1C
Response: 0.0

Query: Again, but for O=C(N/N=C/c1ccccc1Cl)C(=O)Nc1cccc(C(F)(F)F)c1
Response: 0.0

Query: Note, next up: CCCCCCn1c(=N)n(CC(O)COc2cccc(C)c2)c2ccccc21 (stereo unspecified)
Response: 0.0

Query: Another molecule to check: O=C(c1ccccc1)N(C(=S)NCCc1ccc(Cl)cc1)c1ccccc1
Response: 0.0

Query: Cool, now O=C(Nc1ccc(F)c(Cl)c1)Nc1ccc(Cl)c(Cl)c1
Response: 0.0

Query: Same again, this time with Nc1cccc(Nc2cc(S(=O)(=O)O)c(N)c3c2C(=O)c2ccccc2C3=O)c1
Response: 0.0

Query: Now consider CCN(CC)c1cc(C)c2cc(NC(=O)c3cccc(OC)c3)ccc2n1 .
Response: 0.0

Query: Also NC(=O)CSc1nc(-c2ccc(F)cc2)cc(-c2ccco2)n1 ?
Response: 0.0

Query: Param item: Cc1c(-c2noc(-c3ccc([N+](=O)[O-])cc3)n2)no[n+]1[O-]
Response: 0.0

Query: Another molecule to look at: CCOC(=O)CSc1c(-c2ccccc2)c2cc(Cl)ccc2[nH]c1=O
Response: 0.0
